Biological target: Peroxisome proliferator-activated receptor alpha (Homo sapiens)
Sequence (whole entry): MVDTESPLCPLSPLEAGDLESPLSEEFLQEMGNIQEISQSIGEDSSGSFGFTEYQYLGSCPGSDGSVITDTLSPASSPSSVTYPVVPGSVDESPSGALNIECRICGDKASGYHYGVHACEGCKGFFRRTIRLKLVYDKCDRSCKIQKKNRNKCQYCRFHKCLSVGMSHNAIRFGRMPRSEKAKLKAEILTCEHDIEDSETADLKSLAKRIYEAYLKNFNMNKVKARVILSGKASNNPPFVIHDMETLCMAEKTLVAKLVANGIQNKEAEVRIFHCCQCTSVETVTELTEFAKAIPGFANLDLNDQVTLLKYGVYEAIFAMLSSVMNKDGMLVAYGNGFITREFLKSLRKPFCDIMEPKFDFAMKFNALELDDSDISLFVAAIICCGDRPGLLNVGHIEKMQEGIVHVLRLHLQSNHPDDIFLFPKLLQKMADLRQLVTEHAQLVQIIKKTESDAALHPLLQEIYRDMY
Assay: Agonist activity at PPARalpha expressed in human HepG2 cells at 10 uM assessed as induction of receptor transactivation by reporter gene assay relative to control
Type: functional, cell-based
Measure: fold change (FC)

Known results for compounds:
>>> print(df.to_string())
                           substance_smiles                           target_of_assay  readout_value
0  Cc1ccc(-c2nc(CCOc3ccc(C[C@H]4CO[C@@](C)(C(=O)O)OC4)cc3)c(C)o2)s1  Peroxisome proliferator-activated receptor alpha (Homo sapiens)            6.8
1  Cc1oc(-c2ccccc2)nc1CCOc1ccc(C[C@H]2CO[C@@](C)(C(=O)O)OC2)cc1  Peroxisome proliferator-activated receptor alpha (Homo sapiens)            5.3
2  Cc1oc(C(C)(C)C)nc1COc1ccc(C[C@H]2CO[C@@](C)(C(=O)O)OC2)cc1  Peroxisome proliferator-activated receptor alpha (Homo sapiens)            2.3

1: Cc1oc(-c2ccccc2)nc1COc1ccc(C[C@H]2CO[C@@](C)(C(=O)O)OC2)cc1
2: Cc1oc(-c2ccccc2)nc1CCOc1ccc([C@H]2CO[C@@](C)(C(=O)O)OC2)cc1
Exercise: Pick one, 1 or 2 : lowest reported fold change (FC). Respond using the label that marks the chosen record.
Key: 2
(2: 3, 1: 6.5)
